The reported numbers originate from ChEMBL document CHEMBL3407467.

# measurement-target: Receptor tyrosine-protein kinase erbB-2 (Homo sapiens)
# Sequence (P04626 whole entry, the tested form may be a part): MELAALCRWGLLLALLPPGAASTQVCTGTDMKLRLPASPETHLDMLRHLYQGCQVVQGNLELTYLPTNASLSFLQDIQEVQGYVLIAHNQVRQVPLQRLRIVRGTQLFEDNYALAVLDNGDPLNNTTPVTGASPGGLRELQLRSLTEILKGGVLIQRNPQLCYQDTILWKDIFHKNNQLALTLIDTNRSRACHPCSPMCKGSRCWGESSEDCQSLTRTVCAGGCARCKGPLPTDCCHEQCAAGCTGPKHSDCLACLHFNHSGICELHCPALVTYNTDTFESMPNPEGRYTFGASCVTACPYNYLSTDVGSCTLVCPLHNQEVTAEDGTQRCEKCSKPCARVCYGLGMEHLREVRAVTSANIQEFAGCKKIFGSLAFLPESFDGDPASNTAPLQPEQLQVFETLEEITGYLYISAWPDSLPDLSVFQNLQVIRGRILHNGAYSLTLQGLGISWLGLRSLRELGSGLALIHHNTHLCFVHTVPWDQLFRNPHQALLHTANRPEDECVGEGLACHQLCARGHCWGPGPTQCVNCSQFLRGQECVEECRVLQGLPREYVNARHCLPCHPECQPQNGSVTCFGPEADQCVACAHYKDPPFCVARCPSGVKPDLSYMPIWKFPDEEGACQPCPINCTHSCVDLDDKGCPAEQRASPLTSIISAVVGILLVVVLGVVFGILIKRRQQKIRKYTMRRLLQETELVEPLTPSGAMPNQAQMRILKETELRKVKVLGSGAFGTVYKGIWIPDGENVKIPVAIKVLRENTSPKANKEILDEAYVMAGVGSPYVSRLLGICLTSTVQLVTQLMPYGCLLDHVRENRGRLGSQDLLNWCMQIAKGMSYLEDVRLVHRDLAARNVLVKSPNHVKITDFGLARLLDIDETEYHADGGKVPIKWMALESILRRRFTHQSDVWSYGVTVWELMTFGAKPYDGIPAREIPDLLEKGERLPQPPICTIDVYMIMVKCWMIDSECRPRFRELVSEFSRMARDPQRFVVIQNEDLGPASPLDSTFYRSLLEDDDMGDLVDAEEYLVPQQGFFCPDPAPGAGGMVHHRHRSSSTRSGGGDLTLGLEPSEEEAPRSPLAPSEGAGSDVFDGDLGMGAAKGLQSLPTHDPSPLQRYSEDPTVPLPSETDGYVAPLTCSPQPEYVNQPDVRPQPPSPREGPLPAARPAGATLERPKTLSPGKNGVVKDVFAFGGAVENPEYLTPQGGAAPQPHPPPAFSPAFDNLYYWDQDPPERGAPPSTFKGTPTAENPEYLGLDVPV
# experiment-notes: Inhibition of ErbB-2 intracellular domain (unknown origin) purified from a baculovirus expression system using Biotin-(amino hexonoic acid)-EEEEYFELVAKKK-CONH2 as substrate after 10 mins by scintillation counting in presence of [gamma-33P]ATP
In this section we review reported pIC50 values for a set of molecules.
When answering, recall that pIC50 equals minus log10 of the concentration in mol/L, and write that number alone.

The following molecules have reported results that may help.
molecule: [O-][S+]1CCN(Cc2ccc(-c3cc4c(Nc5ccc(OCc6cccc(F)c6)cc5)ncnc4cn3)o2)CC1
pIC50: 7.68
//
molecule: CN(C)c1cc2c(Nc3ccc4c(cnn4Cc4ccccc4)c3)ncnc2cn1 [GW282974X]
pIC50: 7.80
//
molecule: CN(CCO)c1cc2c(Nc3ccc4c(cnn4Cc4ccccc4)c3)ncnc2cn1
pIC50: 7.52

query: Which pIC50 reading was recorded for the molecule `CS(=O)(=O)CCNCc1ccc(-c2cc3c(Nc4ccc(OCc5ccccc5)cc4)ncnc3cn2)o1` ?
result: 7.59

* * *

# measurement-target: Dihydrofolate reductase (Homo sapiens, UniProt P00374)
# Sequence (P00374 whole entry): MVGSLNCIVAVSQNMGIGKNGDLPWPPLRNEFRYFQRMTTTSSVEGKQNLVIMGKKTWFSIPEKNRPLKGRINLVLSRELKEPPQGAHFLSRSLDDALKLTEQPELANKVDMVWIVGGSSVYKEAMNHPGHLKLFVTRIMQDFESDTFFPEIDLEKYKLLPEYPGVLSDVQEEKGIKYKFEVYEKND
# experiment-notes: Inhibition of recombinant human DHFR expressed in Escherichia coli Rosetta Gami B (DE3) by spectrophotometric assay
measured-metric: Ki (µM)
Numbers only; they are read as µM.

query: Which Ki reading was recorded for the molecule `Nc1nc(N)c2cc(CNc3cc(Cl)ccc3Cl)cnc2n1` ?
result: 0.0244

* * *

# measurement-target: Dihydrofolate reductase (Pneumocystis carinii, UniProt P16184, K37Q)
# Sequence (P16184 whole entry K37Q): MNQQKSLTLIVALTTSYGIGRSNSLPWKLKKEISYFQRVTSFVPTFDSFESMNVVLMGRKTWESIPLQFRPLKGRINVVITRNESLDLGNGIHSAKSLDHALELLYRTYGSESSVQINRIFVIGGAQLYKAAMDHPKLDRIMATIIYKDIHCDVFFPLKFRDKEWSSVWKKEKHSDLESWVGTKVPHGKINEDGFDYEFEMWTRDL
# experiment-notes: Inhibition of Pneumocystis carinii DHFR K37Q mutant by spectrophotometric assay
measured-metric: Ki (nM)
Numbers only; they are read as nM.

query: Which Ki reading was recorded for the compound `Nc1nc(N)c2cc(CNc3cc(Cl)ccc3Cl)cnc2n1` ?
result: 0.26

* * *

# measurement-target: Adenosine kinase (Homo sapiens, UniProt P55263)
# Sequence (P55263 whole entry): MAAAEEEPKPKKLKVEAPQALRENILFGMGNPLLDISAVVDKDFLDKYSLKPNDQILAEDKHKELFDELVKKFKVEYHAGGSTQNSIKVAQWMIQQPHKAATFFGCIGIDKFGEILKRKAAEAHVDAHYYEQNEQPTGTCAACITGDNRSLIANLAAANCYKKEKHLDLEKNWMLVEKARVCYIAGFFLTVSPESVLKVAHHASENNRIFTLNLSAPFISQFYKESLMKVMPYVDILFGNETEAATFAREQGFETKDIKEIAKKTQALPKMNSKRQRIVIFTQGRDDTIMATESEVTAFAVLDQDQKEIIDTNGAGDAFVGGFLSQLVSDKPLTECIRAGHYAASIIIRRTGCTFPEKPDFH
measured-metric: pIC50
When answering, recall that pIC50 equals minus log10 of the concentration in mol/L, and write that number alone.

query: Query for Adenosine kinase (Homo sapiens, UniProt P55263): what pIC50 does the record show for `Nc1ncnc2nc(-c3ccc(N4CCOCC4)nc3)cc(-c3cccc(Br)c3)c12` ?
result: 8.70
